Biological target: T1, G-CSFR on NFS-60 cells (murine myeloblastic cell line) (mouse, UniProt P40223 26-837)
T1 sequence (looked up): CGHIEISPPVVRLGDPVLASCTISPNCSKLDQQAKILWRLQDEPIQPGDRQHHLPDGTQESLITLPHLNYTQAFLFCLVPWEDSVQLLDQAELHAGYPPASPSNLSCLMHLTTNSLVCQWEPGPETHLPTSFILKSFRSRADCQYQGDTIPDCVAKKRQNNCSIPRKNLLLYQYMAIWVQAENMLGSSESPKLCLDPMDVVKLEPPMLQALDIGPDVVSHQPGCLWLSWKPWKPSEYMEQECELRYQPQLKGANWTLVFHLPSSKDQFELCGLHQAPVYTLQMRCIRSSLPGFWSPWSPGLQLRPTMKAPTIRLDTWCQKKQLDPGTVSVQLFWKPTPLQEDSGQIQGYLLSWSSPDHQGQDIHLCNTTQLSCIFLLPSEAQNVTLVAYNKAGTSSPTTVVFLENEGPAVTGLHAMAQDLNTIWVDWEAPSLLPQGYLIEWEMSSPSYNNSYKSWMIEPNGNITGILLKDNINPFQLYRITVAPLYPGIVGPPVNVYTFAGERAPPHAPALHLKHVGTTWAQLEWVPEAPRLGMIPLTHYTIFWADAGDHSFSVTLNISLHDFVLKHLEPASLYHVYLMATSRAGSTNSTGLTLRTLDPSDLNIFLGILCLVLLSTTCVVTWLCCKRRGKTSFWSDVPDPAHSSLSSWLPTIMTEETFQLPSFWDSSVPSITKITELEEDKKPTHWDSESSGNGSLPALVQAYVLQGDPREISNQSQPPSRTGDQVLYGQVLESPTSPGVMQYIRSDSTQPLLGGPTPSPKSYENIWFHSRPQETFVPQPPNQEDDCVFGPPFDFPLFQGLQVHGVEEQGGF
Assay: cell-based or functional assay
endpoint name: NFS-60 EC50 (ng/mL), proliferation of NFS-60 cells

binder: bika2 (designed binder) SKEVLEQSLFLKLDEQVRKLLADIHAIKIDRITGNMDKQKLDTLYLDVADIETTLYQLIEVSH
endpoint result: 98
//
binder: Moevan_t2 (designed binder, Tandem fusion of two Moevan copies joined by a 24 amino acid GS linker) EAAAAARDESAYLKLQEQMRKIDADAAALSETRTIEELDTFKLDVADFVTTVVQLAEELEHRFGRNRRGRTEIYKIVKEVDRKLLDLTDAVLAKEKKGEDILNMVAEIKALLINIYKGGGGSSGGGGSSGGGGSSGGGGSSEAAAAARDESAYLKLQEQMRKIDADAAALSETRTIEELDTFKLDVADFVTTVVQLAEELEHRFGRNRRGRTEIYKIVKEVDRKLLDLTDAVLAKEKKGEDILNMVAEIKALLINIYK
endpoint result: 47.1
//
binder: boskar4_15rl (designed binder) AALAAALAEIYKGLAEYQARLKSLEGISPELGPALDALRLDMADFATTMAQAMEGGGGSGGGGSGGGGSQSFLLKALEQIRKIQADAAALREKLAATYKGNDRAAAAVEIAAQLEAFLEKAYQILRHLAAA
endpoint result: 48.5
//
binder: bika1 (designed binder) SKEVLEQSLFLKLDEQVRKLLADIHAIKIDRITGNMDKQKLDTAYLDVADIETTLYQLIEVSH
endpoint result: 63
//
binder: sohair2_15r (designed binder) MTSDYIIEQIQRKQEEARLKVEEQERKLEAVKEASKRGVSSDQLLNLILDLADIITTLIQIIEESNEAIKELIKNQGGGGSGGGGSGGGGSDYIIEQIQRKQEEARLKVEEQERKLEAVKEASKRGVSSDQLLNLILDLADIITTLIQIIEESNEAIKELIKNQ
endpoint result: 228
